Quick reference: Binding of serum 6 to looped/cyclic peptides of protein X3 of SARS-CoV Urbani of the listed items.
- Tested on: antibodies in sera from SARS patients (sera 1a, 1b, 2, 6, 37, 62, London, SARS-yellow, SARS-green)
- Assay type: binding, human
outcome.measure: Binding of serum 6 to looped/cyclic peptides of protein X3 of SARS-CoV Urbani

INSERT INTO assay_data (entry_sequence, test_value) VALUES
  ('IAIWNLDVIISSIVR', 0.4),
  ('IWNLDVIISSIVRQL', 0.6),
  ('LDVIISSIVRQLFKP', 0.4),
  ('LVDFQVTIAEILIII', 0.3);

###

Quick reference: Control serum LUMC linear peptides of the listed items.
- Tested on: control sera (pooled serum of ten healthy LUMC hospital workers; commercial negative donor pooled serum from the Dutch bloodbank)
- Assay type: binding, human
outcome.measure: Control serum LUMC linear peptides

INSERT INTO assay_data (entry_sequence, outcome_measure, test_value) VALUES
  ('RQLQNSMSGASADST', 'Control serum LUMC linear peptides', 0.6),
  ('LPAADMDDFSRQLQN', 'Control serum LUMC linear peptides', 0.7),
  ('FPPTEPKKDKKKKTD', 'Control serum LUMC linear peptides', 0.6),
  ('AQPLPQRQKKQPTVT', 'Control serum LUMC linear peptides', 0.7),
  ('TDEAQPLPQRQKKQP', 'Control serum LUMC linear peptides', 0.6),
  ('PLPQRQKKQPTVTLL', 'Control serum LUMC linear peptides', 0.5),
  ('KHIDAYKTFPPTEPK', 'Control serum LUMC linear peptides', 0.7),
  ('TLLPAADMDDFSRQL', 'Control serum LUMC linear peptides', 0.8),
  ('PQRQKKQPTVTLLPA', 'Control serum LUMC linear peptides', 0.7),
  ('SRQLQNSMSGASADS', 'Control serum LUMC linear peptides', 0.7),
  ('AFFGMSRIGMEVTPS', 'Control serum LUMC linear peptides', 0.6),
  ('QGTDYKHWPQIAQFA', 'Control serum LUMC linear peptides', 0.6),
  ('AADMDDFSRQLQNSM', 'Control serum LUMC linear peptides', 0.7),
  ('KDNVILLNKHIDAYK', 'Control serum LUMC linear peptides', 0.7),
  ('QLQNSMSGASADSTQ', 'Control serum LUMC linear peptides', 0.6),
  ('AYKTFPPTEPKKDKK', 'Control serum LUMC linear peptides', 0.6),
  ('LQNSMSGASADSTQA', 'Control serum LUMC linear peptides', 0.5),
  ('KDKKKKTDEAQPLPQ', 'Control serum LUMC linear peptides', 0.6);

###

- Test system: antibodies in sera from SARS patients (sera 1a, 1b, 2, 6, 37, 62, London, SARS-yellow, SARS-green)
- Format: binding, human
outcome.measure: Binding of serum 62 to looped/cyclic peptides of protein X4 of SARS-CoV Urbani

INSERT INTO measurements (entry_sequence, test_value) VALUES
  ('SPKLFIRQEEVQQEL', 0.6),
  ('TCTSTHFAFACADGT', 0.8),
  ('PCPSGTYEGNSPFHP', 0.7),
  ('AFACADGTRHTYQLR', 0.5),
  ('ELYSPLFLIVAALVF', 0.6),
  ('PLFLIVAALVFLILC', 0.1),
  ('ILFLTLIVFTSCELY', 0.7),
  ('LTCTSTHFAFACADG', 0.6),
  ('QELYSPLFLIVAALV', 0.6);
